# System: Eimeria tenella
# protocol-description: anticoccidial activity against Eimeria tenella in inoculated Peterson Cross Cockerels, medicated diet, survival
# Type: in vivo
# measurement-setup: 168 h, 30 parts per million in diet, 7 days after inoculation, read-out: % Survival
Where a name gives a salt, the structure may show the parent alone.
reported-property: responders at 30 µg/mL (%)
Form entry: value (%) — number only.

Known responders at 30 µg/mL results, listed for orientation:
# compound, recorded-measurement
data = [
    ("CC(=O)N=C(NN=Cc1ccc(Cl)cc1)NN=Cc1ccc(Cl)cc1", 100),
    ("CN(N=Cc1ccc(Cl)cc1)C(=N)N(C)N=Cc1ccc(Cl)cc1 [hydrobromide]", 100),
    ("N=C(NN=Cc1ccc(Cl)cc1)NNCc1ccc(Cl)cc1", 100),
]

Turning to the following compound.
Problem: Fill in: responders at 30 µg/mL on Eimeria tenella, entry Cl.N=C(NN=Cc1ccc(I)cc1)NN=Cc1ccc(I)cc1 [Hydrochloride]
Result: 55
